Measured glycan array binding signal (z-score) by item
target: Neu5Ac(a2-3)[Neu5Ac(a2-6)]GalNAc; test: glycan array binding signal (z-score within array); higher = stronger binding; conditions: glycan notation: IUPAC condensed, linker removed
Only a selection was taken, and the strongest signals are over-represented in it overall.
Form rule: numeric answer, no unit written next to it.

{"columns": ["BINDER", "glycan array binding signal (z-score)"],
 "data": [
  ["LgFlo1 (Saccharomyces pastorianus), B3IUA8 (protein) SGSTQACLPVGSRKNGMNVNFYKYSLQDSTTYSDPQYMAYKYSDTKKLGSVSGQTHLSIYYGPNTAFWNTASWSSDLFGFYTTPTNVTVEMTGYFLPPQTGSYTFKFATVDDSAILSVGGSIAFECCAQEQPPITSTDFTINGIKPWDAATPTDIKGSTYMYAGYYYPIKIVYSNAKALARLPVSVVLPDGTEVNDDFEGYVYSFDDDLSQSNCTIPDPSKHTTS", -0.356]
]}

Now examine the next entry.
Recorded glycan array binding signal (z-score) (binder Mermaid3 (Stilbonema majum) (protein) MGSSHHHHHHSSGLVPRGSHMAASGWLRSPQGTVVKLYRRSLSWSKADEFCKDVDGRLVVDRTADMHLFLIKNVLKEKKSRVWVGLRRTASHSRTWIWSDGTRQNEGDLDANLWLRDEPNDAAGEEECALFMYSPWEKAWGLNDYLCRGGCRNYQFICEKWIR ): 4.44

Cited source for all entries: the supplement of paper PMC8728848
